Please respond with reported protein stability index for every item in the list.
B1: PTPLAD1 (parent)
chain: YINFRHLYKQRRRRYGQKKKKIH

variants of: B1; test: protein stability index of a GFP-peptide fusion (GPS, HEK-293T) (PSI 1-6); higher = more stable; conditions: c terminus: native;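 also: lentivirally expressed fusions sorted by FACS into six bins by GFP to DsRed ratio, PSI derived from sequencing read proportions per bin multiplied by bin number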
No unit in the answer, only the number.

Query string: So what's the measured protein stability index for this one? Y1C
Result string: 1.59

Query string: Another variant: Y1S
Result string: 3.15

Query string: Another variant: I2Y
Result string: 2.1

Query string: Another variant: G16K
Result string: 2.57

Query string: Another variant: N3Q
Result string: 1.29

Query string: Another variant: K20D
Result string: 3.01

Query string: Another variant: Y1D
Result string: 3.48

Query string: Another variant: K9R
Result string: 3.03

Query string: Another variant: Q10I
Result string: 1.3

Query string: Another variant: H23K
Result string: 1.58

Query string: Another variant: F4H
Result string: 3.71

Query string: Another variant: R11C
Result string: 1.58

Query string: Another variant: Q10R
Result string: 2.26

Query string: Another variant: K21G
Result string: 2.96

Query string: Another variant: R12A
Result string: 1.44

Query string: Another variant: Y1A
Result string: 2.93

Query string: Another variant: K21Y
Result string: 1.35

Query string: Another variant: F4M
Result string: 1.74

Query string: Another variant: K18F
Result string: 2.46

Query string: Another variant: R12I
Result string: 2.44

Query string: Another variant: R5Y
Result string: 2.37

Query string: Another variant: F4Y
Result string: 1.99

The measured values listed here are drawn from the supplement of paper PMC10567573.
